Numbers sourced from patent US10174013B2.

The following compounds are listed with their measured inhibition at 1 µM values.
biological target: DYRK1 (Homo sapiens (Human), UniProt Q13627); assay: ADP-Glo Kinase Assay, DYRK1; type: biochemical; conditions: 1 μM compound; read-out: DYRK1A % INH (1 μM)
Your answer is read as %, so omit the unit and give the number.

Please fill in: inhibition at 1 µM reported for CC(C)n1c(NCCCN)nc2c([N+](=O)[O-])c(Br)c(Br)cc21 [Example 1L] = 47

Please fill in: inhibition at 1 µM reported for CCn1c(N2CCNCC2)nc2c(C#N)c(Br)c(Br)cc21 [Example 8A] = 46

###

target: FLT3wt (Homo sapiens (Human)); test: ADP-Glo Kinase Assay, Flt3 wt; type: biochemical; details: 1 μM compound
Sequence (P36888 27-993): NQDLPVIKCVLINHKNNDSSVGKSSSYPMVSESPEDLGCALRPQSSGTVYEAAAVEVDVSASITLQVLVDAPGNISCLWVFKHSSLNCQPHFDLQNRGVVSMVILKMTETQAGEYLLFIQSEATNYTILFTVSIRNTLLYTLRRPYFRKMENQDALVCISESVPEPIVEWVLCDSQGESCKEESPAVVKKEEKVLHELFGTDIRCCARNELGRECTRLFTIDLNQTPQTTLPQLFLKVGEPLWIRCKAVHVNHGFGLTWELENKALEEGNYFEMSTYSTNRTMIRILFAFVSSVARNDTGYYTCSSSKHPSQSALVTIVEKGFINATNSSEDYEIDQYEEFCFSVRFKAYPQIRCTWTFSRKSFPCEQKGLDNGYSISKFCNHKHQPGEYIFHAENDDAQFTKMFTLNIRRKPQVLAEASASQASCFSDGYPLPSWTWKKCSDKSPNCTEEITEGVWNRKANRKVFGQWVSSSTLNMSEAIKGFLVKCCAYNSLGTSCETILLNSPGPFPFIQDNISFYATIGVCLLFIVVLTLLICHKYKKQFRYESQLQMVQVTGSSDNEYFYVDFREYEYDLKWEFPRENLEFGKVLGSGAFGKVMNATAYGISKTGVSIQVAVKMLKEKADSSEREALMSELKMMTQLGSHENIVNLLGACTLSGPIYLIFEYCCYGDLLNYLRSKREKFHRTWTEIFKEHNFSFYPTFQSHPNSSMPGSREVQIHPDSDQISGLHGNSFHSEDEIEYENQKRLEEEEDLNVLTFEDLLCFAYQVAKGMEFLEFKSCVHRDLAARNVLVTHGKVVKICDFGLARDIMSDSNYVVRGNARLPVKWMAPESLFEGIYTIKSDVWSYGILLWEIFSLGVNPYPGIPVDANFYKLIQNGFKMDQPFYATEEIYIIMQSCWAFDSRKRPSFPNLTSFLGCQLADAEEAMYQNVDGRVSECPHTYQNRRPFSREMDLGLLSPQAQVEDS
Assign True to entries whose Flt3wt % INH (1 μM) meets or exceeds 20%; assign False to the rest.

Example entries begin here.
smiles-repr	study-system	group
COCCn1c(N2CC[C@@H](N)C2)nc2c([N+](=O)[O-])c(Br)c(Br)cc21	FLT3wt (Homo sapiens (Human))	False
CC(C)Cn1c(N2CCC[C@@H](N)C2)nc2c([N+](=O)[O-])c(Br)c(Br)cc21.Cl	FLT3wt (Homo sapiens (Human))	False
O=[N+]([O-])c1c(Br)c(Br)cc2c1nc(N[C@H]1CCNC1)n2CC1CC1	FLT3wt (Homo sapiens (Human))	False

Does the molecule CC(C)n1c(N2CCC(N)CC2)nc2c([N+](=O)[O-])c(Br)c(Br)cc21 have recorded Flt3wt % INH (1 μM) that is 20% or more?
True

Does the molecule CC(C)n1c(N[C@H]2CCNC2)nc2c([N+](=O)[O-])c(Br)c(Br)cc21 have recorded Flt3wt % INH (1 μM) that is 20% or more?
True

Does the molecule NCCCNc1nc2c([N+](=O)[O-])c(Br)c(Br)cc2n1CC1CC1 have recorded Flt3wt % INH (1 μM) that is 20% or more?
False

Does the molecule CCn1c(N2CC[C@@H](N)C2)nc2c([N+](=O)[O-])c(Cl)c(Cl)cc21 have recorded Flt3wt % INH (1 μM) that is 20% or more?
False

###

system: HepG2 cells; assay: Growth inhibition, MTS assay, HepG2; format: cell-based, Human; details: Homo sapiens, HepG2, 72 h, MTS cell viability, read-out: HepG2 ED50
Binary label based on IC50 with cut-off 3000 nM: below gives 1.0, not below gives 0.0.

compound	study-system	group
CCn1c(Nc2ccccc2N)nc2c([N+](=O)[O-])c(Br)c(Br)cc21 [Example 22N]	HepG2 cells	0.0
CC(C)n1c(N2CCNCC2)nc2c(C#N)c(Br)c(Br)cc21	HepG2 cells	1.0

Consider CC(C)n1c(NC2CCNC2)nc2c([N+](=O)[O-])c(Br)c(Br)cc21 (stereo not drawn) . Does its IC50 lie strictly below 3000 nM?
1.0

Consider CC(C)n1c(N2CC(N)C2)nc2c([N+](=O)[O-])c(Br)c(Br)cc21 . Does its IC50 lie strictly below 3000 nM?
0.0

Consider CCn1c(N2CCNC(C)C2)nc2c([N+](=O)[O-])c(Br)c(Br)cc21 (stereo not drawn) [Example 22X] . Does its IC50 lie strictly below 3000 nM?
1.0

###

The following compounds are listed with their measured inhibition at 1 µM values.
target: Pim-1 (Homo sapiens (Human), UniProt P11309); assay: ADP-Glo Kinase Assay, Pim-1; assay type: biochemical; conditions: 1 μM compound; read-out: Pim-1 % INH (1 μM)
Sequence (P11309 whole entry): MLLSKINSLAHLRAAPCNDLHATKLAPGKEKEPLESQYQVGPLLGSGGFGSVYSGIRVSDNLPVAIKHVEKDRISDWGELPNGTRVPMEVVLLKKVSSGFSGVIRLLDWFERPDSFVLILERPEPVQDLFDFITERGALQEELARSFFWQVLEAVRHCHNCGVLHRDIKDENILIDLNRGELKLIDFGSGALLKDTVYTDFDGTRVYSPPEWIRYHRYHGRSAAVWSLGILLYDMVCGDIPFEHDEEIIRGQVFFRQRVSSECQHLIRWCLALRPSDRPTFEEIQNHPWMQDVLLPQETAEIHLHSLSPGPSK
Your answer is read as %, so omit the unit and give the number.

Here's what some known entries look like.
compound	study-system	reported-result
O=[N+]([O-])c1c(Br)c(Br)cc2c1nc(N1CCNCC1)n2CCO	Pim-1 (Homo sapiens (Human), UniProt P11309)	95
CC(C)n1c(NC2CCCNC2)nc2c(C#N)c(Br)c(Br)cc21 (centres unmarked)	Pim-1 (Homo sapiens (Human), UniProt P11309)	70

Please fill in: inhibition at 1 µM reported for NC(=O)Cn1c(N2CCNCC2)nc2c([N+](=O)[O-])c(Br)c(Br)cc21 = 67

Please fill in: inhibition at 1 µM reported for CC(C)n1c(NC2CCC(N)CC2)nc2c([N+](=O)[O-])c(Br)c(Br)cc21 (centres unmarked) = 79

###

biological target: Pim-3 (Homo sapiens (Human)); experiment: ADP-Glo Kinase Assay, Pim-3; assay type: biochemical; details: 1 μM compound
The following molecules are listed with their measured Pim-3 % INH (1 μM) values.
Your answer is read as %, so omit the unit and give the number.

Here's what some known entries look like.
molecule	study-system	value-type	value-units	reported-result
CC(C)Cn1c(N2CCC[C@@H](N)C2)nc2c([N+](=O)[O-])c(Br)c(Br)cc21.Cl	Pim-3 (Homo sapiens (Human))	Pim-3 % INH (1 μM)	%	68
CC(C)n1c(N[C@H]2CNC[C@@H]2O)nc2c([N+](=O)[O-])c(Br)c(Br)cc21.Cl	Pim-3 (Homo sapiens (Human))	Pim-3 % INH (1 μM)	%	76

Here CCn1c(N2CCCC(N)C2)nc2c([N+](=O)[O-])c(Br)c(Br)cc21.Cl (stereo not drawn) was tested on Pim-3 (Homo sapiens (Human)), and its Pim-3 % INH (1 μM) came to 83

Here CCCn1c(NCCCN)nc2c([N+](=O)[O-])c(Br)c(Br)cc21 was tested on Pim-3 (Homo sapiens (Human)), and its Pim-3 % INH (1 μM) came to 77

###

The following molecules are listed with their measured IC50 values.
Test system: HepG2 cells
Test: Growth inhibition, MTS assay, HepG2
Type: cell-based, Human
Settings: 72 hours, MTS cell viability; read-out: HepG2 ED50
Excerpt: The following cell lines, were obtained and used in tests as outlined below: • Human myelomonocytic, biphenotypic leukemia MV4-11 cells (harboring a Flt3-ITD mutation); • Human Acute Myeloid Leukemia MOLM16 cells; • Human Acute Myeloid Leukemia MOLM13 cells (harboring a Flt3-ITD mutation); • Human Myeloid Leukemia KG-1 cells; • Human erythroleukemia HEL92 cells; • Human mantle cell lymphoma Jeko-1 cells; • Human hepatocellular carcinoma HepG2 cells; and • Human colon adenocarcinoma SW-480 cells. […]
Your answer is read as µM, so omit the unit and give the number.

molecule	study-system	IC50 (µM)
CCn1c(NC2CCC(N)CC2)nc2c([N+](=O)[O-])c(Br)c(Br)cc21 (stereo not shown) [Example 1H]	HepG2 cells	2.7

Please fill in: IC50 reported for CCn1c(N2CC[C@@H](N)C2)nc2c([N+](=O)[O-])c(Cl)c(Cl)cc21 = 3.9

Please fill in: IC50 reported for CCn1c(N2CCNCC2C)nc2c([N+](=O)[O-])c(Cl)c(Cl)cc21 (stereo not shown) = 0.9

Please fill in: IC50 reported for CC(C)n1c(N2CCC(N)CC2)nc2c([N+](=O)[O-])c(Br)c(Br)cc21 = 1.2

Please fill in: IC50 reported for CC(C)n1c(NC2CNC2)nc2c([N+](=O)[O-])c(Br)c(Br)cc21 = 1.9

Please fill in: IC50 reported for CCn1c(N2CCC(N)CC2)nc2c([N+](=O)[O-])c(Br)c(Br)cc21 = 4.3

Please fill in: IC50 reported for O=[N+]([O-])c1c(Br)c(Br)cc2c1nc(N1CCNCC1)n2C1CCC1 = 0.4

Please fill in: IC50 reported for Cl.NC1CCCN(c2nc3c([N+](=O)[O-])c(Br)c(Br)cc3n2CC2CC2)C1 (stereo not shown) = 4.5

Please fill in: IC50 reported for CC(C)n1c(N[C@@H]2CCCNC2)nc2c([N+](=O)[O-])c(Br)c(Br)cc21 [Example 1CA] = 1.8

Please fill in: IC50 reported for CCn1c(N2CCNCC2)nc2c([N+](=O)[O-])c(Cl)c(Cl)cc21 = 4.5

Please fill in: IC50 reported for CC(C)n1c(N[C@H]2CCNC2)nc2c([N+](=O)[O-])c(Br)c(Br)cc21 = 3.3

Please fill in: IC50 reported for CC(C)n1c(N2CCC[C@H](N)C2)nc2c([N+](=O)[O-])c(Br)c(Br)cc21 = 0.9

Please fill in: IC50 reported for CC(C)n1c(N[C@H]2CNC[C@@H]2O)nc2c([N+](=O)[O-])c(Br)c(Br)cc21.Cl = 3.2

###

Target: CDK2/E (Homo sapiens (Human))
Test: ADP-Glo Kinase Assay, CDK2/E
Format: biochemical
Conditions: 1 μM compound; read-out: CDK2/E % INH (1 μM)
Procedure: Compounds of the present invention were tested for their inhibitory activity against Pim-1, Pim-2, Pim-3, Flt3 wt, Flt3 ITD, CDK2/E and DYRK1. The testing of the compounds was carried out using the ADP-Glo™ Kinase Assay from Promega Corporation (Madison, Wis., USA). The ADP-Glo™ Kinase Assay is a luminescent ADP detection assay to measure kinase activity by quantifying the amount of ADP produced during a kinase reaction. […]
Where a name gives a salt, the structure may show the parent alone.
Assign condition met to entries whose inhibition at 1 µM meets or exceeds 20%; assign condition not met to the rest.

molecule	group
C#CCn1c(NCCCN)nc2c([N+](=O)[O-])c(Br)c(Br)cc21 [Example 2G, hydrochloride]	condition not met
CC(C)n1c(NCC(O)CN)nc2c([N+](=O)[O-])c(Br)c(Br)cc21 (centres unmarked)	condition not met

Does the molecule O=[N+]([O-])c1c(Br)c(Br)cc2c1nc(N1CCNCC1)n2CC1CCC1 [Example 2F, hydrochloride] have recorded inhibition at 1 µM that is 20% or more?
condition not met

Does the molecule NCCCNc1nc2c([N+](=O)[O-])c(Br)c(Br)cc2n1C1CCCC1 [Example 2H, hydrochloride] have recorded inhibition at 1 µM that is 20% or more?
condition not met

Does the molecule Cl.O=[N+]([O-])c1c(Br)c(Br)cc2c1nc(N1CCNCC1)n2C1CCCC1 [Example 2D, hydrochloride] have recorded inhibition at 1 µM that is 20% or more?
condition met

Does the molecule CC(C)n1c(C2CCNCC2)nc2c([N+](=O)[O-])c(Br)c(Br)cc21 [Example 26A] have recorded inhibition at 1 µM that is 20% or more?
condition met

Does the molecule CC(C)n1c(N2CCOCC2)nc2c([N+](=O)[O-])c(Br)c(Br)cc21 [Example 22K] have recorded inhibition at 1 µM that is 20% or more?
condition not met

Does the molecule CCn1c(NC2CCCNCC2)nc2c([N+](=O)[O-])c(Br)c(Br)cc21 (centres unmarked) have recorded inhibition at 1 µM that is 20% or more?
condition not met

Does the molecule CCn1c(NC2CCC(N)CC2)nc2c(C#N)c(Br)c(Br)cc21 (centres unmarked) have recorded inhibition at 1 µM that is 20% or more?
condition met
